// data source = the supplement of paper PMC3545927

Exercise: for every item that follows, state its recorded furin cleavage Z-score.
STUDY TARGET: furin, P09958;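 note: purified furin at 1:10 enzyme:substrate in 50 mM HEPES pH 7.5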
Sequence (P09958 whole entry): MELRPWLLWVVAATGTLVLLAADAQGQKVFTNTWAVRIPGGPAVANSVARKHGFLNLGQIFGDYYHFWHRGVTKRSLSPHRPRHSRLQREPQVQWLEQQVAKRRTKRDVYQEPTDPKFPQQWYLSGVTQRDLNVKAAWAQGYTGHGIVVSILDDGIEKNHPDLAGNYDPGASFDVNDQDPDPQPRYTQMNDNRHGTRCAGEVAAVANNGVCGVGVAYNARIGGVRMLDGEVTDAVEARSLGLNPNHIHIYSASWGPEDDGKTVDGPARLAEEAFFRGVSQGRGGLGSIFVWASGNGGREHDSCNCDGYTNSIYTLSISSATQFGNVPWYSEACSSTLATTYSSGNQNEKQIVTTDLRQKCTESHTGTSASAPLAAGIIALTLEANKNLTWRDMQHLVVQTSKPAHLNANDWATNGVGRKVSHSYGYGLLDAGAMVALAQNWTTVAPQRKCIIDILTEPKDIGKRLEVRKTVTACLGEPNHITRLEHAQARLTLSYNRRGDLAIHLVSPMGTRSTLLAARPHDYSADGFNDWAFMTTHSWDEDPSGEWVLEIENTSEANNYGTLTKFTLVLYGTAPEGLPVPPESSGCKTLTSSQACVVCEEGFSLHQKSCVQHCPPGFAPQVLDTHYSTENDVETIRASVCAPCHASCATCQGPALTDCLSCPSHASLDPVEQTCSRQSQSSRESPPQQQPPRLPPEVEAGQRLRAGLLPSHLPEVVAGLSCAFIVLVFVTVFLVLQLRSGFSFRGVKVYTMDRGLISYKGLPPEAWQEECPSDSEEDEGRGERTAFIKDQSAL
ASSAY REMARKS: furin cleavage Z-score vs untreated control; higher = more cleavage, active = 3.5 or more, inactive = 1 or less, 8 variable residues between constant flanks
SETTINGS: 7.5 min
The list shows a part of the results. The true hit rate is not given.
Answers are plain numbers.

Below are worked cases with known answers.
CALERRSVYTAGNASASA [FS-1986]	-0.7
CAAVQRVPRDAGNASASA [FS-1312]	6.89
CAVVCCSMHYAGNASASA [HC2075]	-0.613
CARYSAPPGDAGNASASA [HC1543]	-1
CARLRKDQLKAGNASASA [FS-2432]	-0.25

Please report furin cleavage Z-score for every entry that follows.
1. CAWRLLAPITAGNASASA [HC672]
2. CARLKRNQEKAGNASASA [FS-2707]
3. CARLGRSIDDAGNASASA [FS-2275]
4. CARLKREIEKAGNASASA [FS-2431]
5. CALQERVPRDAGNASASA [FS-1366]
6. CAFVQRVFRDAGNASASA [FS-776]

Result:
1. -1.21
2. -0.221
3. 5.11
4. 9.68
5. 7.28
6. -0.109

Below is a list of sequences. For each, state its recorded furin cleavage Z-score.
1. CAYASRGIRPAGNASASA [FS-1618]
2. CAHAVGIFRAAGNASASA [HC748]
3. CARLKRNIGYAGNASASA [FS-1962]
4. CARLRRPIGKAGNASASA [FS-3160]

Result:
1: -0.625; 2: -0.783; 3: 4.52; 4: -0.962
